Assignment: determine reported Cell LXRα efficacy for the given molecules.
# target: Gal4 DNA binding domain fused to the LBD of LXRα in HEK293 cells (Homo sapiens (Human), UniProt Q13133)
# Sequence (Q13133 209-447): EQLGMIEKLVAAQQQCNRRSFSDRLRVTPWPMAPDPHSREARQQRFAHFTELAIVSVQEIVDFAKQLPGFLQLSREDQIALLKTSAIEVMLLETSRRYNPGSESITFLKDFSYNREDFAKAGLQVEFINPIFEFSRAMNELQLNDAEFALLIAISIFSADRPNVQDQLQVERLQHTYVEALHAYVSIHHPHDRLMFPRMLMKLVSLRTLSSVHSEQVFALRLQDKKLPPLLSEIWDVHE
# test-protocol: LXR luciferase transcriptional reporter gene assay, agonist mode, LXRα
# Assay type: cell-based

Completed entries (count: 3):
molecule="CS(=O)(=O)c1cccc(N2CCN(C[C@H]3CC[C@H](C(F)F)CC3)[C@H](c3ccccc3)C2)c1 (single isomer, unassigned)" experimental_result="18796 (7) %"
molecule=CC(C)[C@@H]1CN(c2ccc(F)c(S(C)(=O)=O)c2)CCN1c1ncc(CN2CC(O)C2)c(C(F)(F)F)n1 experimental_result="2838 (20) %"
molecule=CC(C)(O)[C@@H]1CN(c2cccc(S(C)(=O)=O)c2)CCN1c1nccc(C(F)(F)F)n1 experimental_result="1586 (50) %"

Attention now turns to another entry.
State its Cell LXRα efficacy for this molecule: CC(C)[C@@H]1CN(c2ccc(-c3nc(C(N)=O)cs3)c(S(C)(=O)=O)c2)CCN1c1ncc(CO)c(C(F)(F)F)n1
2145 (52) %

----------
# target: UniProt:P55055
# test-protocol: biochemical
# Type: binding
# assay-setup: read-out: LXRβ Binding Ki
# Sequence (P55055 222-460 limits assumed): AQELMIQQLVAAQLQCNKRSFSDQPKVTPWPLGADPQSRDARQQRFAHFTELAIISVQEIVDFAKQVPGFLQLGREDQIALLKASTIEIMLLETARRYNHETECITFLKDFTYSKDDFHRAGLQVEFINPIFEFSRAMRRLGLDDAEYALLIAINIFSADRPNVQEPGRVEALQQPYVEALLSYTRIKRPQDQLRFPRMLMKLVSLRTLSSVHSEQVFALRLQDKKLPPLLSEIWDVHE
observed-property: pKi
Answers are plain numbers, as −log10 of the molar value.

Completed entries (count: 3):
compound=CNS(=O)(=O)c1cc(N2CCN(c3ncc(C(C)(C)O)c(C(F)(F)F)n3)[C@H](C(C)C)C2)ccc1F experimental_result=8.30
compound="CS(=O)(=O)c1cc(N2CCN(C[C@H]3CC[C@@H](C(F)(F)F)CC3)[C@H](c3ccccc3Cl)C2)ccc1C(N)=O (single isomer, unassigned)" experimental_result=6.03
compound="CC(C)[C@H]1CN(c2cccc(S(C)(=O)=O)c2)CCN1C[C@@H]1CC[C@@H](C(F)(F)F)OC1 (single isomer, unassigned)" experimental_result=7.35

State its pKi for this compound: CC(C)[C@@H]1CN(c2ccc(F)c(S(C)(=O)=O)c2)CCN1c1ncc(C(F)(F)F)c(C(N)=O)n1
6.76

----------
# target: Gal4 DNA binding domain fused to the LBD of LXRα in HEK293 cells (Homo sapiens (Human), UniProt Q13133)
# test-protocol: LXR luciferase transcriptional reporter gene assay, agonist mode, LXRα
# Format: cell-based
# assay-setup: read-out: Cell LXRα EC50
observed-property: pEC50
One number for each entry, as −log10 of the molar value.

molecule=CS(=O)(=O)c1cc(N2CCN(C[C@H]3CC[C@@H](C(F)(F)F)CC3)[C@@H](c3ccc(F)cc3)C2)ccc1F experimental_result=6.34
molecule="CC(C)[C@@H]1CN(c2cccc(S(C)(=O)=O)c2)CCN1C[C@H]1CC[C@H](C(F)(F)F)CC1 (single isomer, unassigned)" experimental_result=5.02
molecule=CC(C)[C@@H]1CN(c2ccc(F)c(S(C)(=O)=O)c2)CCN1C[C@H]1CC[C@@H](C(F)(F)F)CC1 experimental_result=5.87

Attention now turns to another entry.
State its pEC50 for this molecule: CC(C)[C@H]1CN(c2ccc(CO)c(S(C)(=O)=O)c2)CCN1C[C@H]1CC[C@@H](C(F)(F)F)OC1
6.71

----------
# target: LXR β LBD protein (Homo sapiens (Human), UniProt P55055)
# test-protocol: biochemical
# Assay type: binding
# assay-setup: read-out: LXRβ Binding Ki
observed-property: Ki (nM)
One number for each entry, in nM.

Completed entries (count: 10):
molecule=CS(=O)(=O)c1cccc(N2CCN(C[C@H]3CC[C@@H](C(F)(F)F)CC3)[C@@H](c3ccc(F)cc3)C2)c1 observed_property=Ki experimental_result=15
molecule=COC(=O)c1ccnc(N2CCN(c3ccc(F)c(S(C)(=O)=O)c3)C[C@H]2C(C)C)n1 observed_property=Ki experimental_result=20
molecule="COC(=O)c1cc(CN2CCN(c3cccc(S(C)(=O)=O)c3)CC2c2ccccc2)ccc1C(F)(F)F (stereo not drawn)" observed_property=Ki experimental_result=244
molecule=C=C(C)c1cnc(N2CCN(c3ccc(CO)c(S(C)(=O)=O)c3)C[C@H]2C(C)C)nc1C(F)(F)F observed_property=Ki experimental_result=1
molecule=CC(C)[C@@H]1CN(c2ccc(F)c(S(N)(=O)=O)c2)CCN1c1ncc(C(C)(C)O)c(C(F)(F)F)n1 observed_property=Ki experimental_result=34
molecule=Cc1coc(-c2ccc(N3CCN(c4ncc(CO)c(C(F)(F)F)n4)[C@H](C(C)C)C3)cc2S(C)(=O)=O)n1 observed_property=Ki experimental_result=133
molecule=COCCNC(=O)c1cnc(N2CCN(c3ccc(F)c(S(C)(=O)=O)c3)C[C@H]2C(C)C)nc1C(F)(F)F observed_property=Ki experimental_result=532
molecule=CC(C)[C@@H]1CN(c2ccc(F)c(S(C)(=O)=O)c2)CCN1c1nc2c(F)cccc2s1 observed_property=Ki experimental_result=9
molecule=CC(C)[C@@H]1CN(c2ccc(F)c(S(C)(=O)=O)c2)CCN1c1ncc(C(=O)N(C)C)c(C(F)(F)F)n1 observed_property=Ki experimental_result=123
molecule=CC(C)[C@@H]1CN(c2ccc(F)c(S(C)(=O)=O)c2)CCN1c1ncc(C(=O)N(C)CCC(C)(C)O)c(C(F)(F)F)n1 observed_property=Ki experimental_result=618

Parameters: items (list). Returns: Ki for each item.
1. CC(C)[C@@H]1CN(c2ccc(F)c(S(C)(=O)=O)c2)CCN1c1cncc(C(F)(F)F)c1
2. CS(=O)(=O)c1cc(N2CCN(C[C@H]3CC[C@H](C(F)(F)F)CC3)[C@H](c3ccccc3)C2)ccc1CO (single isomer, unassigned)
3. CC(C)[C@@H]1CN(c2ccc(CO)c(S(C)(=O)=O)c2)CCN1c1nc(C(F)(F)F)c(CO)o1
4. Cc1nc(N2CCN(c3ccc(F)c(S(C)(=O)=O)c3)CC2CC(F)(F)F)ncc1C(C)(C)O (stereo not drawn)
5. CS(=O)(=O)c1cccc(N2CCN(C[C@H]3CC[C@@H](C(F)(F)F)CC3)[C@@H](c3ccccc3)C2)c1 (single isomer, unassigned)

24
972
95
862
5

----------
# target: UniProt Q13133
# test-protocol: Human LXRα coactivator recruitment FRET assay, agonist mode
# Assay type: biochemical
# assay-setup: agonist mode
# Procedure: Two μL of the DMSO solutions were transferred to the plate and 38 μL of 10 nM LXRα-LBD or LXRβ-LBD (2×) were added immediately to the wells. […] The percent control vs. compound concentration data were fit into a four-parameter model, and EC50 values were calculated from the fit as the concentrations corresponding to the inflection points on the concentration-response curves.
observed-property: EC50 (µM)
Numbers only, in µM.

Completed entries (count: 3):
molecule="CS(=O)(=O)c1cccc(N2CCN(c3ccc(C(F)(F)F)cn3)[C@@H](c3ccccc3)C2)c1 [7-40]" observed_property=EC50 output_unit=µM experimental_result=45.1
molecule="CC(C)[C@@H]1CN(c2ccc(C#N)c(S(C)(=O)=O)c2)CCN1c1cc(C(F)(F)F)ccn1 [7-39]" observed_property=EC50 output_unit=µM experimental_result=1.43
molecule="CS(=O)(=O)c1cc(N2CCN(C[C@H]3CC[C@@H](C(F)(F)F)CC3)[C@@H](c3ccccc3)C2)ccc1C(N)=O (single isomer, unassigned) [17-39]" observed_property=EC50 output_unit=µM experimental_result=0.267

Attention now turns to another entry.
State its EC50 for this molecule: CS(=O)(=O)c1cccc(N2CCN(Cc3ccc(OC(F)(F)F)cc3)[C@@H](c3ccccc3)C2)c1 (single isomer, unassigned) [46-23]
7.04

----------
# target: LXR β LBD protein (Homo sapiens (Human), UniProt P55055)
# test-protocol: biochemical
# Assay type: biochemical
# assay-setup: read-out: FRET LXRβ EC50
# Sequence (P55055 222-460): as the sequence (P55055 222-460 limits assumed) above
Lab note: anything with EC50 below 900 nM is marked MET; values at 900 nM or higher are marked NOT MET.

compound="CS(=O)(=O)c1cccc(N2CCN(Cc3ccc(OC(F)F)cc3)[C@@H](c3ccccc3)C2)c1 [46-11]" classification=MET
compound="CC(C)c1ccc(CN2CCN(c3cccc(S(C)(=O)=O)c3)C[C@@H]2c2ccccc2)cc1 [46-8]" classification="NOT MET"
compound="CS(=O)(=O)c1cccc(N2CCN(c3nccc(C(F)(F)F)n3)[C@H](c3ccc(F)cc3)C2)c1 [8-1]" classification=MET
compound="COC(=O)c1cnc(N2CCN(c3ccc(F)c(S(C)(=O)=O)c3)C[C@H]2C(C)C)nc1C(F)(F)F [9-2]" classification=MET

Now consider a different compound.
Lab note: confirm whether the reported EC50 for this compound is below 900 nM, equality not counting. compound: CS(=O)(=O)c1cccc(N2CCN(Cc3ccc(C(F)(F)F)cc3)[C@H](c3ccccc3)C2)c1 (single isomer, unassigned) [46-14]
NOT MET

----------
# target: Gal4 DNA binding domain fused to the LBD of LXRβ in HEK293 cells (Homo sapiens (Human))
# Sequence (P55055 222-460 limits assumed): as above
# test-protocol: cell-based
# assay-setup: agonist mode
observed-property: Cell LXRβ efficacy

Completed entries (count: 3):
molecule="CC(=O)c1cnc(N2CCN(c3ccc(F)c(S(C)(=O)=O)c3)C[C@H]2c2ccc(F)cc2)nc1C(F)(F)F [13-3]" target="Gal4 DNA binding domain fused to the LBD of LXRβ in HEK293 cells (Homo sapiens (Human))" observed_property="Cell LXRβ efficacy" experimental_result="360 (18) %"
molecule="CS(=O)(=O)c1cccc(N2CCN(Cc3ccc(C(F)(F)F)c(F)c3)[C@H](c3ccccc3)C2)c1 (single isomer, unassigned) [46-25]" target="Gal4 DNA binding domain fused to the LBD of LXRβ in HEK293 cells (Homo sapiens (Human))" observed_property="Cell LXRβ efficacy" experimental_result="2557 (13) %"
molecule="Cc1nc(N2CCN(c3ccc(F)c(S(C)(=O)=O)c3)C[C@H]2C(C)C)ncc1Cl [7-12]" target="Gal4 DNA binding domain fused to the LBD of LXRβ in HEK293 cells (Homo sapiens (Human))" observed_property="Cell LXRβ efficacy" experimental_result="177 (58) %"

Attention now turns to another entry.
State its Cell LXRβ efficacy for this molecule: CC(C)[C@@H]1CN(c2ccc(F)c(S(C)(=O)=O)c2)CCN1c1ncc(CNS(C)(=O)=O)c(C(F)(F)F)n1 [15-7]
198 (18) %
